Molecular target: T1, 4H930-AA
T1 chain: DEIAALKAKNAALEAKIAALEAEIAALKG
Experiment: two-hybrid library CCmax;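 further: natural log of median RNA to DNA barcode read ratio; higher means stronger binding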
Settings: mean of both orientations
The following binders are shown together with reported interaction score values.
API note: the answer field is a bare number with no unit suffix.

In the examples that follow, each entry is paired with its recorded interaction score.
>>> readout_value("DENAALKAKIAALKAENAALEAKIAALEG [4H1877-AA]")
-1.46
>>> readout_value("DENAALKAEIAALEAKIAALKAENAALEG [4H1579-AA]")
-1.7
>>> readout_value("DEIAALKAKIAALKAKNAALKAENAALEG [4H891-AA]")
-1.86

query: # query: interaction score of entry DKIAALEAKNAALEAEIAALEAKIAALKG [4H2438-AA]
result: 0.452

query: # query: interaction score of entry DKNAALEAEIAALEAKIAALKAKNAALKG [4H3120-AA]
result: -1.5

query: # query: interaction score of entry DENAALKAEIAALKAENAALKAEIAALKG [4H1626-AA]
result: -1.25

query: # query: interaction score of entry DEIAALKAKIAALEAENAALKAKIAALEG [4H797-AA]
result: -1.72

query: # query: interaction score of entry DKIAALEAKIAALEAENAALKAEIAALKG [4H2330-AA]
result: -1.22

query: # query: interaction score of entry DEIAALKAENAALKAKIAALKAEIAALEG [4H745-AA]
result: -0.807

query: # query: interaction score of entry DEIAALKAKIAALKAENAALEAEIAALKG [4H850-AA]
result: -1.9

query: # query: interaction score of entry DEIAALKAENAALKAEIAALEAKIAALKG [4H710-AA]
result: -0.472

query: # query: interaction score of entry DKNAALKAEIAALKAKNAALEAEIAALEG [4H3697-AA]
result: -1.4

query: # query: interaction score of entry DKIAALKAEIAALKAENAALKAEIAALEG [4H2649-AA]
result: -0.569

Reference for the values: paper PMC10397247
